Documented T/C across a set of compounds
Tested on: P388 leukemia ip, CD2F1 mice, survival T/C
protocol-description: NCI In Vivo Anticancer Drug Screen. Data for tumor model P388 Leukemia (intraperitoneal) in CD2F1 (CDF1) mice
particulars: endpoint: median survival time; dose: 200.0 mg/kg/injection; schedule: Q04DX003 (ip); vehicle: saline with Tween-80; higher = longer survival
Inconclusive results and toxic doses are left out.
quantity: T/C

compound="COC(=O)C(Br)c1cccc(OC)c1 (centres undefined)" endpoint_value="100 % of control"
compound=CCNc1ccc(F)cc1[N+](=O)[O-] endpoint_value="86 % of control"
compound=c1ccc2c(c1)Sc1ccccc1N2CCCNC1=NCCO1 endpoint_value="88 % of control"
compound=COc1ccc(CCN2COc3ccc4ccc(=O)oc4c3C2)cc1OC endpoint_value="115 % of control"
compound=O=C(Cc1ccccc1)c1ccccc1 endpoint_value="100 % of control"
compound=CCNc1nc(Cl)nc(NC(C)C)n1 endpoint_value="91 % of control"
compound=Cc1nc2c(I)cccc2c(=O)n1CC(=O)NNC(N)=S endpoint_value="97 % of control"
compound=CNC(=O)Nc1cc2ccccc2o1 endpoint_value="100 % of control"
compound="CC(O)CC1=Nc2c(nc(N)[nH]c2=O)N(C)C1 (centres undefined)" endpoint_value="97 % of control"
compound="CN(c1ccccc1)C1CS(=O)(=O)OC2=C1CN(Cc1ccccc1)CC2 (centres undefined)" endpoint_value="94 % of control"
compound=CN1C(Sc2ccccc2)=NN(c2ccccc2)CN1c1ccccc1 endpoint_value="88 % of control"
compound=CCOc1ccc2cc(S(=O)(=O)O)ccc2c1N endpoint_value="90 % of control"
compound=C/C(=C\C(=O)O)CC(=O)O endpoint_value="97 % of control"
compound="O=C1OC2=C(CCCCC2)C(N2CCCCC2)C12SCCCS2 (centres undefined)" endpoint_value="104 % of control"
compound="Cc1cc2c(cc1C)NC(C)CC(=O)N2 (centres undefined)" endpoint_value="95 % of control"
compound=C=CCn1nc(-c2ccccc2)c(-c2ccccc2)n1 endpoint_value="95 % of control"
compound=Cn1c(Cl)c(C=O)c(=O)n(C)c1=O endpoint_value="96 % of control"
compound=Cc1cc(Cl)c2ccccc2c1N endpoint_value="95 % of control"
compound=OC(Cc1cnc2ccccc2n1)(C(F)(F)F)C(F)(F)F endpoint_value="95 % of control"

====

System: P388 leukemia ip, CD2F1 mice, survival T/C
protocol-description: NCI In Vivo Anticancer Drug Screen. Data for tumor model P388 Leukemia (intraperitoneal) in CD2F1 (CDF1) mice
particulars: endpoint: median survival time; dose: 200.0 mg/kg/injection; schedule: Q01DX001 (ip); vehicle: saline with Tween-80; higher = longer survival
Inconclusive results and toxic doses are left out.
Documented T/C across a set of molecules
quantity: T/C

molecule="COc1ccc(C2(c3ccc(OC)cc3)N=NC3(C)CC32)cc1 (stereo not drawn)" quantity=T/C endpoint_value="89 % of control"
molecule="CN1C(=S)C2(C1c1ccccc1)C(C)(C)CCCC2(C)C (stereo not drawn)" quantity=T/C endpoint_value="92 % of control"
molecule=Nn1cnc2nc[nH]c2c1=O quantity=T/C endpoint_value="104 % of control"
molecule=O=c1nc(Cl)c2ccccc2c2ccccc12 quantity=T/C endpoint_value="97 % of control"
molecule=COc1ccc2[nH]cc(/C=C(/C)c3ccncc3)c2c1 quantity=T/C endpoint_value="108 % of control"
molecule=O=C(N/N=C/c1cc(Cl)cc(Cl)c1[O-])c1ccccc1.O=C(N/N=C/c1cc(Cl)cc(Cl)c1[O-])c1ccccc1.[Zn+2] quantity=T/C endpoint_value="94 % of control"
molecule=COc1ccc(/C=N/Nc2nnc3c4ccccc4c4ncccc4c3n2)cc1 quantity=T/C endpoint_value="95 % of control"
molecule=C=CCSc1nc(-c2ccc(Cl)cc2)c(C#N)c(=O)[nH]1 quantity=T/C endpoint_value="97 % of control"
molecule=CCOC(=O)N(CCCl)C(=O)C(C)C quantity=T/C endpoint_value="100 % of control"
molecule=C=C1C(=O)O[C@@H]2C[C@@H](C)[C@@H]3CC(=O)OC[C@@]3(C)C[C@H]12 quantity=T/C endpoint_value="118 % of control"
molecule=Cc1cc(=O)n(-c2cc(C)c3cc(Cl)ccc3n2)[nH]1 quantity=T/C endpoint_value="94 % of control"
molecule=N#C/C(=C/c1ccc(Cl)cc1)C(N)=O quantity=T/C endpoint_value="97 % of control"
molecule="O=C(OC1OC(COCc2ccccc2)C(OCc2ccccc2)C(OCc2ccccc2)C1OCc1ccccc1)c1ccc([N+](=O)[O-])cc1 (stereo not drawn)" quantity=T/C endpoint_value="90 % of control"

Reference for the values: PubChem BioAssay AID330
